# Tested on: EKVX
# Measurement protocol: NCI tumour cell line growth inhibition, 48 h
The source made the active and inactive calls. No stated cut-off is given here; in the data, active = GI50 up to about 1.1 µM and inactive = higher.
Would you mind answering with one of these outcomes? 1 = active, 0 = inactive

Cc1ccc(C(O)c2cnc(C)n2Cc2ccccc2)cc1 (centres undefined)    0
CN(/N=C1\C(=O)Nc2ccccc21)c1ccccc1    0
CCOC(=O)[C@@H]1[C@@H]2NC(=O)N[C@@]1(C)Oc1ccccc12    0
Cc1c2ccncc2cc2c1sc1ccncc12    0

Input line: Per the records of this test, what outcome belongs to O=c1[nH]nc(Cc2ccc(Cl)cc2)n1CCO ?
Output line: 0

Input line: Per the records of this test, what outcome belongs to COc1ccc(/C=C2\CCCCC2=O)cc1 ?
Output line: 0

Input line: Per the records of this test, what outcome belongs to C1=NN(Cc2ccccc2)C(N(Cc2ccccc2)Cc2ccccc2)N1 (centres undefined) ?
Output line: 0

Input line: Per the records of this test, what outcome belongs to CCCCCCCCCCCCC(SCCNC(=O)CCNC(=O)C(O)C(C)(C)COP(=O)(O)OP(=O)(O)OCC1OC(n2cnc3c(N)ncnc32)C(O)C1OP(=O)(O)O)C(=O)NCC(N)=O (centres undefined) ?
Output line: 0

Input line: Per the records of this test, what outcome belongs to COc1nc2c(c(=O)n1C)N=C(c1ccccc1)[C@H](C(CC(=O)c1ccccc1)c1ccccc1)C(c1ccccc1)N2 (some centres undefined) ?
Output line: 0

Input line: Per the records of this test, what outcome belongs to c1ccc(C(NC2=NCCO2)c2ccccc2)cc1 ?
Output line: 0

Input line: Per the records of this test, what outcome belongs to C=CCSC1=N/C(=C\c2ccco2)C(=O)N1CC=C ?
Output line: 0

Input line: Per the records of this test, what outcome belongs to CCCCCCCCCCCCCCCCOC[C@@H](COC(c1ccccc1)(c1ccccc1)c1ccccc1)O[PH](=S)OC (some centres undefined) ?
Output line: 0

Input line: Per the records of this test, what outcome belongs to C=C(Br)COc1ccc2c(C)cc(=O)oc2c1 ?
Output line: 0

---

# System: SF-539
# Measurement protocol: NCI tumour cell line growth inhibition, 48 h
Calls of active or inactive are those of the source. Rule as the data show it: active = GI50 up to about 1.1 µM and inactive = higher.
Value kind: GI50

N#CCc1n[nH]c2nc(SCc3ccccc3)nc(N3CCCCC3)c12    21.4 µM (inactive)
NC(=S)N1N=C(c2ccccc2O)CC1c1ccccc1 (stereo not given)    11.8 µM (inactive)
C=C1C(=O)O[C@H]2[C@H]3O[C@@H](C[C@@H]12)[C@](C)(O)CC[C@@H]1O[C@@]1(C)CCC[C@H]3C    18.7 µM (inactive)

Input line: Would you kindly share the measured GI50 for Nc1nc(-c2ccccc2)cc(-c2ccc(OCc3ccccc3)cc2O)n1 ?
Output line: 26 µM (inactive)

Input line: Would you kindly share the measured GI50 for Cc1ccc(NC(=O)C23CC4CC(CC(C4)C2)C3)c(C(=O)NNC(=O)c2ccc(Cl)cc2)c1 ?
Output line: 18.1 µM (inactive)

Input line: Would you kindly share the measured GI50 for CCSc1nn(-c2c3ccccc3nc3ccccc23)c(=S)s1 ?
Output line: > 100 µM (inactive)

Input line: Would you kindly share the measured GI50 for O=C(N/C(=C\c1ccc(Br)cc1)c1nc2ccccc2s1)c1ccccc1 ?
Output line: 88.9 µM (inactive)

Input line: Would you kindly share the measured GI50 for O=C1CC(NC(=O)C(F)(F)F)c2c(Br)sc(N3CCNCC3)c21 (stereo not given) ?
Output line: > 100 µM (inactive)

Input line: Would you kindly share the measured GI50 for COC(=O)C1CCC(=O)N1C(c1cc(OC)c(OC)c(OC)c1)c1cccc2ccccc12 (stereo not given) ?
Output line: > 100 µM (inactive)

Input line: Would you kindly share the measured GI50 for NCCSCC(N)C(=O)O (stereo not given) ?
Output line: > 497 µM (inactive)

---

Parameter GI50: see the listing below.
# System: HCC 2998
# Measurement protocol: NCI tumour cell line growth inhibition, 48 h
Activity calls are given as the source filed them. Cut-off read from the data, not from the text of the source: active = GI50 up to about 1.1 µM and inactive = higher.

Past entries and their recorded results:
CNC(=O)OCCN1c2ccccc2Sc2ccccc21    > 100 µM (inactive)
COc1ccc(N2C(=O)/C(=C/c3ccc(N(CCC#N)CCC#N)cc3C)N=C2c2cc([N+](=O)[O-])ccc2Cl)cc1    4.68 µM (inactive)
Cc1cc(C)c2c(c1)C/C(=C\c1cccc(C)c1C(=O)O)C2=O    66.5 µM (inactive)
CC(C)=CCC/C(C)=C/COc1c2ccoc2cc2oc(=O)ccc12    28.2 µM (inactive)
c1ccc(-c2cs[s+]c2)cc1    > 100 µM (inactive)

Input line: Would you kindly share the measured GI50 for O=c1[nH]nc(Cc2ccc(Cl)cc2)n1CCO ?
Output line: > 100 µM (inactive)

Input line: Would you kindly share the measured GI50 for Cc1nc2ccccc2n1C(=O)c1c(F)c(F)c(F)c(F)c1F ?
Output line: 17.6 µM (inactive)

Input line: Would you kindly share the measured GI50 for O=C(NCCN1CCCCC1)c1cccc(I)c1 ?
Output line: > 100 µM (inactive)

---

# Tested on: SK-MEL-5
# Measurement protocol: NCI tumour cell line growth inhibition, 48 h
Activity calls are given as the source filed them. Rule as the data show it: active = GI50 up to about 1.1 µM and inactive = higher.
Value kind: GI50

Past entries and their recorded results:
CC(C)(C)NC1C2CCC(C)(C1O)C2(C)C (stereo not given)    > 100 µM (inactive)
CSc1[nH]nc(N)c1C(=O)Nc1ccc(C)cc1    31 µM (inactive)
Cc1ccc(C(O)c2cnc(C)n2Cc2ccccc2)cc1 (stereo not given)    79.1 µM (inactive)
CC(=O)Nn1c(Cc2ccc(Cl)cc2)nn(C)c1=O    > 100 µM (inactive)
O=C(Nc1cccc(F)c1)c1cc2ccc(O)cc2o/c1=N\c1ccccc1F    2.2 µM (inactive)
COC1=CC(=O)c2c(cc(COP(N)(=O)N(CCCl)CCCl)n2C)C1=O (stereo not given)    1.36 µM (inactive)

Input line: Would you kindly share the measured GI50 for O=C(N/N=C1/C(=O)N(c2ccc(Cl)cc2Cl)C(=O)C(=O)C1c1nc2ccccc2o1)c1ccccc1O (stereo not given) ?
Output line: 19 µM (inactive)

Input line: Would you kindly share the measured GI50 for CCCCCCCCCCCCCCCCP(=O)(OC)OC ?
Output line: 16.4 µM (inactive)

Input line: Would you kindly share the measured GI50 for CCOS(=O)(=O)c1ccc(-c2c3nc(c(-c4ccc(S(=O)(=O)OCC)cc4)c4ccc([nH]4)c(-c4ccc(S(=O)(=O)OCC)cc4)c4nc(c(-c5ccc(S(=O)(=O)OCC)cc5)c5ccc2[nH]5)C=C4)C=C3)cc1 ?
Output line: > 31.6 µM (inactive)

Input line: Would you kindly share the measured GI50 for Cc1c(CC/C(=N\Nc2ccc([N+](=O)[O-])cc2[N+](=O)[O-])c2ccccc2)c2ccccc2n1C ?
Output line: > 100 µM (inactive)

Input line: Would you kindly share the measured GI50 for O=S(O)CCCSSCCCCSSCCCS(=O)O ?
Output line: > 100 µM (inactive)

Input line: Would you kindly share the measured GI50 for COc1ccc2nc3cc(Cl)ccc3c(Sc3ccc(N)cc3)c2c1 ?
Output line: 12.4 µM (inactive)

Input line: Would you kindly share the measured GI50 for CC(C)(C)[Si](C)(C)OCC1OC(n2ccc(N)nc2=O)C(O[Si](C)(C)C(C)(C)C)C1O[Si](C)(C)C(C)(C)C (stereo not given) ?
Output line: 2.01 µM (inactive)

Input line: Would you kindly share the measured GI50 for CC12OC1(C)C1C(=O)OCC1C2=O (stereo not given) ?
Output line: > 100 µM (inactive)

Input line: Would you kindly share the measured GI50 for c1ccc(CSC2(SCc3ccccc3)CCCC2)cc1 ?
Output line: > 10 µM (inactive)

Input line: Would you kindly share the measured GI50 for C=CCC1(C)CCCCC1(O)C[S+]([O-])c1ccccc1 (stereo not given) ?
Output line: > 100 µM (inactive)

Input line: Would you kindly share the measured GI50 for O=C(c1ccccc1Br)C(F)(F)F ?
Output line: > 100 µM (inactive)

Input line: Would you kindly share the measured GI50 for O=C(CSCC(=O)N/N=C\c1cc(Cl)cc(Cl)c1O)N/N=C\c1cc(Cl)cc(Cl)c1O ?
Output line: 3.42 µM (inactive)

Input line: Would you kindly share the measured GI50 for CN1C(=O)c2cccc3cc([N+](=O)[O-])cc(c23)C1=O ?
Output line: > 10 µM (inactive)

Input line: Would you kindly share the measured GI50 for C[N+](C)(CCNc1ccc(NCC[N+](C)(C)Cc2ccc([N+](=O)[O-])cc2)c2c1C(=O)c1c(O)ccc(O)c1C2=O)Cc1ccc([N+](=O)[O-])cc1 ?
Output line: 15 µM (inactive)

---

# Test system: SW-620
# Measurement protocol: NCI tumour cell line growth inhibition, 48 h
Calls of active or inactive are those of the source. No stated cut-off is given here; in the data, active = GI50 up to about 1.1 µM and inactive = higher.
Would you mind answering with one of these outcomes? active, inactive

CN(/N=C1\C(=O)Nc2ccccc21)c1ccccc1    inactive
Cc1ccc(C(O)c2cnc(C)n2Cc2ccccc2)cc1 (stereo not drawn)    inactive
COc1cc2cc(C(=O)N3CC(CCl)c4c3cc(NC(=O)C(C)Nc3c([N+](=O)[O-])cc(C(=O)NCCN(C)C)cc3[N+](=O)[O-])c3ccccc43)[nH]c2c(OC)c1OC (stereo not drawn)    active
Cc1ccc(S(=O)(=O)c2[nH]cc(/C(=C\C3CCCCC3)[N+](=O)[O-])c2C2CCCCC2)cc1    active
CN1CCc2ccccc2C(C(=O)c2ccc3c(c2)OCO3)C1=O (stereo not drawn)    inactive

Okay, now this compound:
Input line: Per the records of this test, what outcome belongs to [C-]#[N+]C1(C(=O)OCC)CC1 ?
Output line: inactive

Values compiled from ChEMBL document CHEMBL1201862.
